Molecular target: human SGLT2 (Homo sapiens, UniProt P31639)
Construct: expressed in transfected cells
Sequence (P31639 1-672): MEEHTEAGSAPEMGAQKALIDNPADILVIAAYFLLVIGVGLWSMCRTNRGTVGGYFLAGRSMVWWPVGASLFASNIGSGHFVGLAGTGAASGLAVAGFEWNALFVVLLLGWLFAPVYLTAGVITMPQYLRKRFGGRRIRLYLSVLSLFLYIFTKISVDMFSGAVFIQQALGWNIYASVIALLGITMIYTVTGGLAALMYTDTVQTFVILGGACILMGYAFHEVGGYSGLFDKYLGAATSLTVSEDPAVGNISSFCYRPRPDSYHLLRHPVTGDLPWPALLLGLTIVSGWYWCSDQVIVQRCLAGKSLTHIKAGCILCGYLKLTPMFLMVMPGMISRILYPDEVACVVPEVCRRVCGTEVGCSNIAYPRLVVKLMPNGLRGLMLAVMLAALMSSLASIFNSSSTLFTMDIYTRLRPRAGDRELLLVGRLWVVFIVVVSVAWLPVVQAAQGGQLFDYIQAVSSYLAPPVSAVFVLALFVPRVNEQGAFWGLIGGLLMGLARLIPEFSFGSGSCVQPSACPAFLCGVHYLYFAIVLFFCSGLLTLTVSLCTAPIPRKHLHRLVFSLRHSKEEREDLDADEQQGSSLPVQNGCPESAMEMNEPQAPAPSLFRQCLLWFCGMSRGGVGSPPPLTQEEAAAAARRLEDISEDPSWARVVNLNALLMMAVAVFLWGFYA
Test: SGLT2 in vitro assay: Na-dependent 14C-AMG uptake in CHO-K1 cells stably expressing human SGLT2
Assay type: cell-based
Settings: @ 0.3 μM; CHO-K1 cells stably expressing human SGLT2; 14C-AMG uptake; read-out: SGLT2 % Inh @ 0.3 μM
Protocol: Biological Example 1: SGLT1 and SGLT2 In Vitro Assays The ability of the compounds of formula (I) of the present invention to treat an SGLT-mediated condition was determined using the following procedures: […] Inhibition of SGLT1 and SGLT2 activity was assessed in CHO K1 cells stably expressing either human SGLT1 or SGLT2, using the SGLT specific glucose analog methyl-glucopyranoside (Sigma Catalog No. M-9376). […] Plates were counted in a TopCount (Packard, Meriden, Conn.) […]
The reader will find reported inhibition at 0.3 µM values listed item by item below.
Hi! Could you send only the number? It should be in %, unit omitted.

Example molecules with recorded inhibition at 0.3 µM:
test_smiles=COc1ccc(Cc2cc([C@@H]3O[C@H](CO)C(F)(F)[C@H](O)[C@H]3O)c(O)cc2C)cc1 output_unit=% result_number=94.4
test_smiles=COc1cc(O)c([C@@H]2O[C@H](CO)C(F)(F)[C@H](O)[C@H]2O)cc1Cc1ccc2c(c1)OCCO2 output_unit=% result_number=52.8
test_smiles=COc1cc(C)c(Cc2ccc(OCF)cc2)cc1[C@@H]1O[C@H](CO)C(F)(F)[C@H](O)[C@H]1O output_unit=% result_number=76.7
test_smiles=Cc1cnc(C(=O)N2CCc3sc(Cc4cc([C@@H]5O[C@H](CO)C(F)(F)[C@H](O)[C@H]5O)c(O)cc4C)cc3C2)s1 output_unit=% result_number=85.4
test_smiles=CCc1cc(O)c([C@@H]2O[C@H](CO)C(F)(F)[C@H](O)[C@H]2O)cc1Cc1ccc(OC)cc1 output_unit=% result_number=88.6

Consider the molecule OC[C@H]1O[C@@H](c2cc(Cc3ccc(OCF)cc3)c(Cl)cc2O)[C@H](O)[C@@H](O)C1(F)F . State its measured inhibition at 0.3 µM.
85.5

Consider the molecule COc1cc(Cl)c(Cc2ccc3c(c2)OCC3)cc1[C@@H]1O[C@H](CO)C(F)(F)[C@H](O)[C@H]1O . State its measured inhibition at 0.3 µM.
86.8

Consider the molecule Cc1cc(O)c([C@@H]2O[C@H](CO)C(F)(F)[C@H](O)[C@H]2O)cc1Cc1ccc2c(c1)OCCO2 . State its measured inhibition at 0.3 µM.
93
